Recorded drug sensitivity score by entry
Tested on: Caco-2
method_notes: drug sensitivity score (DSS) for viability; higher = more toxic; extreme values may be limits of the assay
run_parameters: 72 h
Give the figure only, with no unit attached.

Worked examples, 8 compounds total:
INSERT INTO measurements (compound, tested_on, recorded_number) VALUES
  ('C=CCN1CC[C@]23c4c5ccc(O)c4O[C@H]2[C@@H](OCCOCCOCCOCCOCCOCCOCCOC)CC[C@@]3(O)[C@H]1C5', 'Caco-2', 0),
  ('COc1cc2c(Oc3ccc4[nH]c(C)cc4c3F)ccnc2cc1OCC1(N)CC1', 'Caco-2', 1.8),
  ('N=C(N)NC(=O)c1cnccn1', 'Caco-2', 0),
  ('Cc1cc(-c2cc(OC(=O)c3ccccc3)ccc2Cl)cc2nnc(Nc3ccc(OCCN4CCCC4)cc3)nc12', 'Caco-2', 0),
  ('CC(C)C[C@@H](NC(=O)[C@H](Cc1ccccc1)NC(=O)CNC(=O)[C@@H](C)NC(=O)[C@@H](N)Cc1ccc(O)cc1)C(=O)O [BW-180C]', 'Caco-2', 0),
  ('CC1=C(CC(=O)O)c2cc(F)ccc2/C1=C\c1ccc(S(C)(=O)=O)cc1', 'Caco-2', 2.2),
  ('C=C(C)[C@@H]1CC[C@]2(C(=O)O)CC[C@]3(C)[C@H](CC[C@@H]4[C@@]5(C)CC[C@H](OC(=O)CC(C)(C)C(=O)O)C(C)(C)[C@@H]5CC[C@]43C)[C@@H]12', 'Caco-2', 0),
  ('CCCOc1ccc2[nH]c(NC(=O)OC)nc2c1', 'Caco-2', 2.4);

Task: Reported drug sensitivity score for C[C@]1(COc2ccc(N3CCC(Oc4ccc(OC(F)(F)F)cc4)CC3)cc2)Cn2cc([N+](=O)[O-])nc2O1 : what is it?
Output: 0

Task: Also OCCN1CCN(CCCN2c3ccccc3Sc3ccc(C(F)(F)F)cc32)CC1 , if possible.
Output: 3.4

----------
Test system: Caco-2
method_notes: cell viability relative to DMSO; higher = less toxic
run_parameters: 72 h; 1 nM
Recorded cell viability by entry
Hi, when you answer, please include the unit after the number. Thanks!

Worked examples, 5 compounds total:
INSERT INTO results (compound, result) VALUES
  ('CCC(=O)O[C@@H]1CC(=O)O[C@H](C)C/C=C/C=C/[C@H](OC(C)=O)[C@H](C)C[C@H](CC=O)[C@H](O[C@@H]2O[C@H](C)[C@@H](O[C@H]3C[C@@](C)(OC(C)=O)[C@@H](OC(=O)CC)[C@H](C)O3)[C@H](N(C)C)[C@H]2O)[C@H]1OC', '98.4%'),
  ('CCCCCCCCCCC(O)C1C=CC2C(=O)N(c3ccccc3)C(=O)C2N1Nc1ccc([N+](=O)[O-])cc1 (stereo unspecified)', '96.6%'),
  ('N=C(N)Nc1ccc2[nH]c3c(c2c1)C[C@@]1(O)[C@H]2Cc4ccc(O)c5c4[C@@]1(CCN2CC1CC1)[C@H]3O5', '99.7%'),
  ('CCCCNc1ccc(C(=O)OCCN(C)C)cc1', '101%'),
  ('COc1ccc(OC[C@@H]2c3cc(OC)c(OC)cc3CCN2C(=O)c2cccc(Cl)c2)cc1', '101%');

Okay, now this compound:
Task: Form field: cell viability recorded for CCOC(=O)OC(C)OC(=O)[C@@H]1N2C(=O)[C@@H](NC(=O)[C@H](N)c3ccccc3)[C@H]2SC1(C)C (stereo partly specified) with Caco-2 (enter value)
Output: 96.3%

----------
Test system: U2OS
method_notes: cell viability relative to DMSO; higher = less toxic
run_parameters: 72 h; 1 nM
observable: cell viability (%)
Field format: number, assumed %, no unit text.

Worked examples, 8 compounds total:
INSERT INTO assay_data (compound, tested_on, recorded_number) VALUES
  ('N#CC(c1ccnc(OCc2ccc(CN3CCOCC3)cc2)n1)c1nc2ccccc2s1 (centres undefined)', 'U2OS', 102),
  ('CN1CCc2c(c3ccccc3n2Cc2ccc(C(=O)NO)cc2)C1', 'U2OS', 102),
  ('Nc1c(CC(=O)O)cccc1C(=O)c1ccccc1', 'U2OS', 101),
  ('O=C(c1ccc(-c2ccc(Cl)cc2)o1)N(Cc1ccccn1)c1ccc(N2CCNCC2)cc1', 'U2OS', 97.9),
  ('CCCOc1ccc(Br)cc1-c1cc(-c2ccc(Cl)cc2)[nH]c1-c1ccncc1', 'U2OS', 104),
  ('O=C(NCc1ccccc1)c1csc(Nc2ccncn2)n1', 'U2OS', 105),
  ('Cc1ccc(S(=O)(=O)Nc2nc3ccccc3nc2Nc2ccc3nsnc3c2)cc1', 'U2OS', 96),
  ('COc1ccc2nc3cc(Cl)ccc3c(Nc3cc(CN4CCCC4)c(O)c(CN4CCCC4)c3)c2n1', 'U2OS', 98.3);

Okay, now this compound:
Task: Reported cell viability for CO/N=C(\C(=O)N[C@@H]1C(=O)N2C(C(=O)OCOC(=O)C(C)(C)C)=C(/C=C\c3scnc3C)CS[C@H]12)c1csc(N)n1 : what is it?
Output: 103

----------
Tested on: Caco-2
method_notes: cell viability relative to DMSO; higher = less toxic
run_parameters: 72 h; 100 nM
observable: cell viability (%)
Field format: number, assumed %, no unit text.

Worked examples, 2 compounds total:
INSERT INTO assay_data (compound, recorded_number) VALUES
  ('NS(=O)(=O)c1cc2c(cc1Cl)N=C(CSCc1ccccc1)NS2(=O)=O [benzthiazide]', 93.2),
  ('CCN(CC)C(=O)[C@@]1(c2ccccc2)C[C@H]1CN', 87.5);

Task: Reported cell viability for CC(=O)NC1N=C(c2ccccc2)c2ccccc2NC1=O (configuration not stated) : what is it?
Output: 93.9

Task: Also N=C(N)NC(=O)c1cnccn1 , if possible.
Output: 101

Task: Also CCC(CC)(CC(=O)Nc1cccc(/C=C/c2nc(C3CCC3)cs2)c1)C(=O)O , if possible.
Output: 102

Task: Also CCOC(=O)c1ncn2c1CN(C)C(=O)c1cc(N=[N+]=[N-])ccc1-2 , if possible.
Output: 94.6

Task: Also O[C@H]1CC[C@H](Nc2ncc3nc(Nc4c(F)cc(F)cc4F)n([C@H]4CCOC4)c3n2)CC1 , if possible.
Output: 102

Task: Also COc1ccc(OC[C@@H]2c3cc(OC)c(OC)cc3CCN2C(=O)c2cccc(Cl)c2)cc1 , if possible.
Output: 91.8

Task: Also CCn1cc(C(=O)O)c(=O)c2cnc(N3CCNCC3)nc21 , if possible.
Output: 95.5

Task: Also NC1CCN(c2cccc(Cl)n2)CC1 , if possible.
Output: 96.6

Task: Also OC[C@H]1NC[C@@H](O)[C@@H](O)[C@@H]1O , if possible.
Output: 98.2

Task: Also CC(C)c1ccccc1S(=O)(=O)c1cc(N)c2ncccc2c1[N+](=O)[O-] , if possible.
Output: 99.1

Task: Also CCNC(=O)CCC/C=C\C[C@@H]1[C@@H](/C=C/[C@@H](O)CCc2ccccc2)[C@H](O)C[C@@H]1O , if possible.
Output: 106

Task: Also COc1cc(-n2c(=S)[nH]c3ccccc3c2=O)c(Cl)cc1Cl , if possible.
Output: 94.2

Task: Also CCC(=O)O[C@@H]1CC(=O)O[C@H](C)C/C=C/C=C/[C@H](O)[C@H](C)C[C@H](CC=O)[C@H](O[C@@H]2O[C@H](C)[C@@H](O[C@H]3C[C@@](C)(O)[C@@H](OC(=O)CC)[C@H](C)O3)[C@H](N(C)C)[C@H]2O)[C@H]1OC , if possible.
Output: 103

Task: Also CCCOc1ccc(Br)cc1-c1cc(-c2ccc(Cl)cc2)[nH]c1-c1ccncc1 , if possible.
Output: 93.6

Task: Also CC1=C(CC(=O)O)c2cc(F)ccc2/C1=C\c1ccc(S(C)(=O)=O)cc1 , if possible.
Output: 91.6

----------
Recorded cell viability by entry
Test system: Calu-3
method_notes: cell viability relative to DMSO; higher = less toxic
run_parameters: 72 h; 1 nM
Field format: number, assumed %, no unit text.

INSERT INTO measurements (compound, observable, unit_abbreviation, recorded_number) VALUES
  ('CSc1ccc([C@H]2CN3CCC[C@H]3c3ccccc32)cc1 (racemic) [McN-5652-(+/-)]', 'cell viability', '%', 102),
  ('COc1cc2ncnc(Sc3nnc(C)s3)c2cc1OC', 'cell viability', '%', 103),
  ('C/C=C/c1cc(OC)c(OC)cc1OC', 'cell viability', '%', 94.6),
  ('CCOC(=O)c1ncn2c1CN(C)C(=O)c1cc(N=[N+]=[N-])ccc1-2', 'cell viability', '%', 103),
  ('COc1cc(C(C)=O)ccc1OCCCN1CCC(c2noc3cc(F)ccc23)CC1', 'cell viability', '%', 93),
  ('CCCCS(=O)(=O)N[C@@H](Cc1ccc(OCCCCC2CCNCC2)cc1)C(=O)O', 'cell viability', '%', 94.5);

Task: Reported cell viability for CC1(C)CC[C@]2(NC(=O)C(C)(F)F)CC[C@]3(C)[C@H](C(=O)C=C4[C@@]5(C)C=C(C#N)C(=O)C(C)(C)[C@@H]5CC[C@]43C)[C@@H]2C1 [Omaveloxolone (RTA-408)] : what is it?
Output: 99.6

Task: Also CC(=O)OCC1=C(C(=O)O)N2C(=O)[C@@H](NC(=O)CSc3ccncc3)[C@H]2SC1 , if possible.
Output: 98.9

Task: Also CCNC(=O)CCC/C=C\C[C@@H]1[C@@H](/C=C/[C@@H](O)CCc2ccccc2)[C@H](O)C[C@@H]1O , if possible.
Output: 113

Task: Also CCCCCCCCCCCCCCCc1cccc(OCC(=O)NCCO)c1 , if possible.
Output: 102
